Values from paper doi:10.1101/2021.04.25.441314

biological target: Hfq wt (Escherichia coli, UniProt P0A6X3 1-102); test: filter binding
measure.name: Kd (nM)
Hi! Could you send only the number? It should be in nM, unit omitted.

# query: Kd of entry AgvB-U0 (structured_RNA) RNA: GGCGAUAACACAACAAUAUCAGUAUCUCAUGCUAUUGCCCGAACCCAUUCGGGCA
1.75
